- System: TGF-β
- protocol.notes: Effects on the extracellular matrix (proteoglycan) production by TGF-β in NRK-49F fibroblasts
- Assay type: cell-based
- experimental.setup: Rattus norvegicus; test compound 10 μM; NRK-49F cells, 3 ng/ml TGF-β, [35S]-proteoglycan radioactivity, 24 hours; read-out: TGF-β inhibitory rate (%)
Here, each record is paired with measured inhibition at 10 µM data.
measure.name: inhibition at 10 µM (%)

>>> numeric_readout("Cc1ccc(C(=O)c2cccn2Cc2cnc3cc(Cl)ccc3c2)cc1")
91
>>> numeric_readout("Cc1ccc(Cn2cccc2Cc2cnc3ccccc3c2)cc1")
78
>>> numeric_readout("O=C(c1ccc(OCCN2CCOCC2)cc1)c1cccn1Cc1cnc2ccccc2c1")
75
>>> numeric_readout("Cc1ccc(Cc2cccn2Cc2ccc3ccccc3n2)cc1")
51
>>> numeric_readout("Cc1ccc(S(=O)(=O)n2cccc2C(O)c2cnc3ccccc3c2)cc1 (stereo not drawn)")
88
>>> numeric_readout("Cc1ccc(C(=O)c2cccn2Cc2cnc3cc(C#N)ccc3n2)cc1")
75
>>> numeric_readout("Cc1ccc(C(=O)c2cccn2Cc2cnc3nccnc3c2)cc1")
48
>>> numeric_readout("Cc1ccc(C(=O)c2cc(C)cn2Cc2cnc3ccccc3c2)cc1")
95
>>> numeric_readout("Cc1ccc(C(=O)c2cccn2Cc2cnc3ccccc3c2)cc1OCC(O)CO (stereo not drawn)")
47
